- system_name: UniProt P56817
- assay_procedure: Inhibition of BACE1 in HEK293T cells
- Type: cell-based, HEK-293T
observed_property: IC50 (nM)
Quick note: give the figure in nM, leave out the unit.

Please review the following examples before continuing.
compound	recorded_result
CCCC[C@H](NC[C@@H]1Cc2cccc(c2)CCCCc2cc(cc(N(CCC)S(C)(=O)=O)c2)C(=O)N1)C(=O)NCC(C)C	76
CC[C@H](NCC1Cc2cccc(c2)OCCNC(=O)c2cc(cc(N(C)S(C)(=O)=O)c2)C(=O)N1)C(=O)NCC(C)C (stereo partly drawn)	5400

Query block: Field: IC50 (UniProt P56817). Entry: CC[C@H](NCC1Cc2cccc(c2)CCCCc2cc(cc(N(C)S(C)(=O)=O)c2)C(=O)N1)C(=O)NCC(C)C (stereo partly drawn)
Result block: 1140

---

- assay_procedure: Apparent permeability in porcine LLC-PK1 cells
- Format: ADME, cell-based, Sus scrofa
- assay_conditions: pig
List of Papp values.
Quick note: give the figure in nm/s, leave out the unit.

compound	recorded_result
CC[C@H](NCC1Cc2cccc(c2)OCCNC(=O)c2cc(cc(N(C)S(C)(=O)=O)c2)C(=O)N1)C(=O)NCC(C)C (stereo partly drawn)	5

Query block: Find the recorded Papp belonging to CCCC[C@H](NC[C@@H]1Cc2cccc(c2)CCCCc2cc(cc(N(CCC)S(C)(=O)=O)c2)C(=O)N1)C(=O)NCC(C)C and report it.
Result block: 130

Query block: Find the recorded Papp belonging to CC[C@H](NCC1Cc2cccc(c2)CCCCc2cc(cc(N(C)S(C)(=O)=O)c2)C(=O)N1)C(=O)NCC(C)C (stereo partly drawn) and report it.
Result block: 190

---

- system_name: Beta-secretase 1 (Homo sapiens)
- Sequence (P56817 whole entry): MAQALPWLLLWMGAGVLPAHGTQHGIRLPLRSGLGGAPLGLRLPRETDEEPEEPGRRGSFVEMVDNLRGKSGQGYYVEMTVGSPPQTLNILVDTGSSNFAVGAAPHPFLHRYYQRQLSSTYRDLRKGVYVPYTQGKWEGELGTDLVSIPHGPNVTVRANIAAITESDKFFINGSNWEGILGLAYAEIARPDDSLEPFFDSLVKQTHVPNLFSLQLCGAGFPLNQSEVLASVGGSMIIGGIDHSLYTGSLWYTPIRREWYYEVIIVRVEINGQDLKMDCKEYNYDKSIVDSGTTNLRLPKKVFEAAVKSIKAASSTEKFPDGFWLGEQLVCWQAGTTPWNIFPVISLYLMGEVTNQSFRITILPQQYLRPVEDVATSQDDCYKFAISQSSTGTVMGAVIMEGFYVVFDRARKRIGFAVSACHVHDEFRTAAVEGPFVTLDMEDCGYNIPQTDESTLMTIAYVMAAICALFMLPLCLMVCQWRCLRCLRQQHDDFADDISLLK
- assay_procedure: Inhibition of BACE1 at pH 4.5
List of IC50 values.
Quick note: give the figure in nM, leave out the unit.

Please review the following examples before continuing.
compound	recorded_result
CC[C@H](NCC1Cc2cccc(c2)CCCCCc2cc(cc(N(C)S(C)(=O)=O)c2)C(=O)N1)C(=O)NCC(C)C (stereo not given in full)	1100
CC[C@H](NCC1Cc2cccc(c2)OCCNC(=O)c2cc(cc(N(C)S(C)(=O)=O)c2)C(=O)N1)C(=O)NCC(C)C (stereo not given in full)	32
CCCC[C@H](NC[C@@H]1Cc2cccc(c2)CCCCc2cc(cc(N(CCC)S(C)(=O)=O)c2)C(=O)N1)C(=O)NCC(C)C	4

We now examine a further compound.
Query block: Field: IC50 (Beta-secretase 1 (Homo sapiens)). Entry: CC[C@H](NCC1Cc2cccc(c2)CCCCc2cc(cc(N(C)S(C)(=O)=O)c2)C(=O)N1)C(=O)NCC(C)C (stereo not given in full)
Result block: 90

Reference source: ChEMBL document CHEMBL1137385
